Value source: ChEMBL document CHEMBL1201861

- Tested on: A101D;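 also: growth inhibition of the cell line, measured with a viability assay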
- test-description: cells
- Format: functional, cell-based
- experimental-setup: Homo sapiens
- Description: SANGER: Inhibition of human A101D cell growth in a cell viability assay.
measurement-name: IC50

Entry Cc1[nH]c(/C=C2\C(=O)Nc3ccc(S(=O)(=O)Cc4c(Cl)cccc4Cl)cc32)c(C)c1C(=O)N1CCC[C@@H]1CN1CCCC1 [PHA-665752] ; IC50 = > 2000 nM

Summary for this compound, "O=c1cc(N2CCOCC2)oc2c(-c3cccc4c3sc3ccccc34)cccc12" : IC50 is > 2000 nM

Input CC(O)(CS(=O)(=O)c1ccc(F)cc1)C(=O)Nc1ccc(C#N)c(C(F)(F)F)c1 (centres undefined) [BICALUTAMIDE] . Output IC50: > 1020 nM

IC50 recorded for this compound, C[C@]1(c2nc3c(C(N)=O)cccc3[nH]2)CCCN1 [VELIPARIB] , is > 5000 nM
